biological target: human mAChR M4 (Homo sapiens, UniProt P08173); assay: mAChR M4 cell-based functional assay (calcium flux), human M4; details: Table 10; % ACh maximum at 30 μM
Sequence (P08173 whole entry): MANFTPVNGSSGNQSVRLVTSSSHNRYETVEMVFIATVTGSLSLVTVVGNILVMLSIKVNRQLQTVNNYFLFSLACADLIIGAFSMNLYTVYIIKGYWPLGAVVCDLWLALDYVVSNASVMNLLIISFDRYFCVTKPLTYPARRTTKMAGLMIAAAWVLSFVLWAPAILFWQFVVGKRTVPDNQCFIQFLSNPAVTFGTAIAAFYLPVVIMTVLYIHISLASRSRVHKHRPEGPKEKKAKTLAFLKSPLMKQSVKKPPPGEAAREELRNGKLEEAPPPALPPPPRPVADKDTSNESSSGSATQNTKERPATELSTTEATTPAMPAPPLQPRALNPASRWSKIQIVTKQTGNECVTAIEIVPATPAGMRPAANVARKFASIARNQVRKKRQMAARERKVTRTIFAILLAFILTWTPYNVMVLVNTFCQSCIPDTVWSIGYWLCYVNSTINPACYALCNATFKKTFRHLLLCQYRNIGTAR
Structures can show the parent of a compound that is named as a salt.
outcomeMeasure: Emax (%)

{"compound": "Cc1nc2oc3c(NCc4ccc(S(C)(=O)=O)cc4)ncnc3c2c(C)c1Cl [Compound 248, hydrochloride]", "testedOn": "human mAChR M4 (Homo sapiens, UniProt P08173)", "outcomeMeasure": "Emax", "measurement": 45.5}
{"compound": "Cc1nnc2oc3c(N4CC5(COC5)C4)ncnc3c2c1C [Compound 307]", "testedOn": "human mAChR M4 (Homo sapiens, UniProt P08173)", "outcomeMeasure": "Emax", "measurement": 46.1}
{"compound": "CCCCCC(=O)N1CC2(CC(Nc3ncnc4c3sc3nnc(C)c(C)c34)C2)C1 [Compound 170]", "testedOn": "human mAChR M4 (Homo sapiens, UniProt P08173)", "outcomeMeasure": "Emax", "measurement": 41}
{"compound": "Cc1cc(C)c2c(n1)sc1c(NCc3ccc(C(C)(C)O)cc3)ncnc12 [Compound 206]", "testedOn": "human mAChR M4 (Homo sapiens, UniProt P08173)", "outcomeMeasure": "Emax", "measurement": 75.8}
{"compound": "Cc1nnc2sc3c(N4CC(O)(C5CC5)C4)ncnc3c2c1C [Compound 103]", "testedOn": "human mAChR M4 (Homo sapiens, UniProt P08173)", "outcomeMeasure": "Emax", "measurement": 80.3}

(1) Cc1nnc2sc3c(NCc4ccc(C(=O)N5CCC5)cc4)ncnc3c2c1C [Compound 131]
(2) Cc1nnc2sc3c(N4CCC(C(=O)Nc5ccccn5)C4)ncnc3c2c1C (centres unmarked) [Compound 174]
(3) Cc1c(Cl)cnc2sc3c(NCc4ccc(S(C)(=O)=O)cc4)ncnc3c12 [Compound 237, dihydrochloride]
// query Rank ascending by Emax. Lab note: final answer is the ordered label list.
// result 2, 3, 1
(2: 31%, 3: 54.5%, 1: 88.4%)

(I) Cc1c(Cl)nnc2sc3c(N4CCCC4)ncnc3c12 [Compound 209]
(II) Cc1nnc2sc3c(NC4CC5(C4)CN(C(=O)c4ccc(C(F)(F)F)cc4)C5)ncnc3c2c1C [Compound 172]
// query Out of I and II , name the one with the higher Emax. Selection: enter the item's label.
// result I

(a) COc1nnc2sc3c(NC4CN(c5ncc(C(F)(F)F)cn5)C4)ncnc3c2c1C [Compound 282]
(b) Cc1nnc2sc3c(NCc4ccc(S(C)(=O)=O)cc4)ncnc3c2c1C [Compound 93]
// query Out of a and b , name the one with the higher Emax. Selection: enter the item's label.
// result a
(a: 90.9%, b: 61.3%)

(P) Cc1ncc(CNc2ncnc3c2sc2nc(C)c(Cl)c(C)c23)cn1 [Compound 271, dihydrochloride]
(Q) Cc1cc(C)c2c(n1)oc1c(NC3CN(c4ncc(F)cn4)C3)ncnc12 [Compound 289, hydrochloride]
// query Out of P and Q , name the one with the higher Emax. Selection: enter the item's label.
// result P

(a) Cc1nnc2sc3c(NC4CN(c5ncc(OC(C)C)cn5)C4)ncnc3c2c1C [Compound 89]
(b) COCC1CN(C(=O)c2ccc(CNc3ncnc4c3sc3nnc(C)c(C)c34)cc2)C1 [Compound 127]
// query Would you kindly point out which of a and b has the smaller Emax figure? Selection: enter the item's label.
// result a
(a: 57.8%, b: 88.4%)
